# Test system: Hh signaling-dependent motor neuron differentiation (E14Tg2a.4 embryonic stem cells)
# Assay type: cell-based, mouse
# measurementParameters: Mus musculus, Neuron, read-out: IC50, inhibitory activity for Hh signaling-dependent motor neuron differentiation
assayMetric: IC50 (nM)
One number for each entry, in nM.

Quick one: IC50 of CC1=C2C[C@H]3[C@@H](CC=C4C[C@@H](O)CC[C@@]43C)[C@@H]2CC[C@]12O[C@@H]1C[C@H](C)CN[C@H]1[C@H]2C ?
300

Hello, the source for this data is paper PMC4013422, in case you need it.
